molecular target: Transcriptional coactivator YAP1/Transcriptional enhancer factor TEF-1 (Homo sapiens, UniProt P28347); assay: Inhibition of TEAD1 (209 to 426 residues) (unknown origin) expressed in Escherichia coli BL21 (DE3) cells/FAM-labelled YAP1 (60 to 99 residues)(unknown origin) protein-protein interaction preincubated for 24 hrs at 4 degree C with compound followed by fluorescent labelled YAP1 addition by fluorescence polarization assay
Sequence (P46937 whole entry, the tested form may be a part): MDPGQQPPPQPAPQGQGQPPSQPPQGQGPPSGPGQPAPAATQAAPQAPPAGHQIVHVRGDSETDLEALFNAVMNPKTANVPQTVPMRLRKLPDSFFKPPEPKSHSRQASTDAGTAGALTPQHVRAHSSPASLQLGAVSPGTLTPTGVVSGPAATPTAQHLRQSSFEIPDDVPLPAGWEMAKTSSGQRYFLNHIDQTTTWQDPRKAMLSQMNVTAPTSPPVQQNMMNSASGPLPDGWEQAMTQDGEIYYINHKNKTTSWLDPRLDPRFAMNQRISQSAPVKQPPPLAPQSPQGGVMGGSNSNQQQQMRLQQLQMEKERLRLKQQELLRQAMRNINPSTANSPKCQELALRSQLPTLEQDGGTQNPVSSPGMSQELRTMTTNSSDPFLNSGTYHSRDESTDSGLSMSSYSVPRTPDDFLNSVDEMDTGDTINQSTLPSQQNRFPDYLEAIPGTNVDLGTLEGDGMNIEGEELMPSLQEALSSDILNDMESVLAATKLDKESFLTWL
Sequence (P28347 whole entry, the tested form may be a part): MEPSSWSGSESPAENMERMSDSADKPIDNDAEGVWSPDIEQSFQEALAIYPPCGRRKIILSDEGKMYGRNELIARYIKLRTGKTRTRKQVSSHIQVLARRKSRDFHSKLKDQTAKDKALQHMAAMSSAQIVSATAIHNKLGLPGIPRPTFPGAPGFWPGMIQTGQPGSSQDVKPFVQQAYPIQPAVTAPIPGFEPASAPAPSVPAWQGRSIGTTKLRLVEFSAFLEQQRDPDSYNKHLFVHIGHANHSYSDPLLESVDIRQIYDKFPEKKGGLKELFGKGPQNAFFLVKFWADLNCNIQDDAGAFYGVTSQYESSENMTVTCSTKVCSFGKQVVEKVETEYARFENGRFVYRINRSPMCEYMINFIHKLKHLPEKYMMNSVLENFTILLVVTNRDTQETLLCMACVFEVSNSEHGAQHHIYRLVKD
experimental_endpoint: pIC50
When answering, recall that pIC50 equals minus log10 of the concentration in mol/L, and write that number alone.

input_smiles=NC(=O)c1oc2ccccc2c1NC(=O)CCl experimental_endpoint=pIC50 value_observed=5.52

Turning to the following compound.
[ask] Returns the measured pIC50 for the input compound. Input: O=C(CCl)NCCSc1ccc(Cl)cc1
[reply] 3.74

====

Below, each entry is listed with its recorded pIC50.
target: YAP1-TEAD4 (Homo sapiens); assay: Inhibition of GST-tagged TEAD4 (217 to 434 residues) (unknown origin) expressed in Escherichia coli BL21 (DE3) cells/FAM-labelled YAP1 (60 to 99 residues)(unknown origin) protein-protein interaction preincubated for 24 hrs at 4 degree C with TEAD4 followed by fluorescent labelled YAP1 addition by fluorescence polarization assay
The value called pIC50 is obtained by taking minus log10 of the concentration in mol/L.

Solved entries:
compound="COc1ccc(CN(C(=O)CCl)C(C(=O)NC2CCCCCC2)c2ccc(OC)cc2)cc1 (stereo not given)" value_observed=5.26
compound="COc1ccc(N(C(=O)CCl)C(C(=O)NCCc2ccccc2)c2cccs2)cc1Cl (stereo not given)" value_observed=5.96
compound=Cc1ccc(S(=O)(=O)N2CCN(C(=O)CCl)C2)cc1 value_observed=5.72

[ask] For the record COc1ccc(C2=NN(C(=O)CCl)C(c3cccc(OC)c3OC)C2)cc1 (stereo not given) , what value of pIC50 is listed for YAP1-TEAD4 (Homo sapiens)?
[reply] 5.96

[ask] I'm curious: which pIC50 was measured for O=C(CCl)N1CCN(S(=O)(=O)/C=C/c2ccccc2)CC1 tested on YAP1-TEAD4 (Homo sapiens)?
[reply] 5.31

====

biological target: YAP1-TEAD4 (Homo sapiens); assay: Inhibition of GST-tagged TEAD4 (217 to 434 residues) (unknown origin) expressed in Escherichia coli BL21 (DE3) cells/FAM-labelled YAP1 (60 to 99 residues)(unknown origin) protein-protein interaction preincubated for 48 hrs at 4 degree C with TEAD4 followed by fluorescent labelled YAP1 addition by fluorescence polarization assay
experimental_endpoint: pIC50
pIC50 (log units): -log10 of the concentration in mol/L.

Answered examples (3):
compound=CCOc1ccc(S(=O)(=O)N2CCN(C(=O)CCl)CC2)cc1 target_entity="YAP1-TEAD4 (Homo sapiens)" experimental_endpoint=pIC50 value_observed=4.71
compound="COc1cccc(C2CC(Cc3cccs3)=NN2C(=O)CCl)c1OC (stereo unspecified)" target_entity="YAP1-TEAD4 (Homo sapiens)" experimental_endpoint=pIC50 value_observed=5.59
compound=CCS(=O)(=O)Oc1ccc(CN(Cc2ccc(F)cc2)C(=O)CCl)cc1 target_entity="YAP1-TEAD4 (Homo sapiens)" experimental_endpoint=pIC50 value_observed=5.28

[ask] Name the reported pIC50 value associated with the compound Cc1ccc(C2=NN(C(=O)CCl)C(c3ccco3)C2)cc1 (stereo unspecified)
[reply] 5.85

[ask] Which pIC50 is reported for this compound? O=C(Nc1ccccc1)C1CCN(C(=O)CCl)CC1
[reply] 5.33

[ask] Bench note: what pIC50 did O=C(NCCc1ccccc1)C(c1cccs1)N(C(=O)CCl)c1cccc(Cl)c1 (stereo unspecified) show?
[reply] 6.05

====

molecular target: YAP1-TEAD4 (Homo sapiens, UniProt Q15561); assay: Inhibition of GST-tagged TEAD4 (217 to 434 residues) (unknown origin) expressed in Escherichia coli BL21 (DE3) cells/FAM-labelled YAP1 (60 to 99 residues)(unknown origin) protein-protein interaction preincubated for 24 hrs at 4 degree C with TEAD4 followed by fluorescent labelled YAP1 addition by fluorescence polarization assay
Sequence (P46937 whole entry, the tested form may be a part): as the sequence (P46937 whole entry, the tested form may be a part) above
Sequence (Q15561 whole entry, the tested form may be a part): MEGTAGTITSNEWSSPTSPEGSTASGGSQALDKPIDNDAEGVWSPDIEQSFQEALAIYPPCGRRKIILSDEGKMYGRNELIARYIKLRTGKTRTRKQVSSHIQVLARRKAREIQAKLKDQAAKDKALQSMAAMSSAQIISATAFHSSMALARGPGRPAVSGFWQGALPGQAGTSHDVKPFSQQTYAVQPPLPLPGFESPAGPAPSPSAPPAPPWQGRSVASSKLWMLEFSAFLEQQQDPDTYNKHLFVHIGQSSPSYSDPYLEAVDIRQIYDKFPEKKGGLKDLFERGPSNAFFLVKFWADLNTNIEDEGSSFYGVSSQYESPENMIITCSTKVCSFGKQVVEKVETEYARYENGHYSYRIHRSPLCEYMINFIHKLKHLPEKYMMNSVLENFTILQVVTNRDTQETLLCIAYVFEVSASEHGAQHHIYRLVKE
experimental_endpoint: log10 of IC50 (log10 of the value in µM)
Log scale reminder: IC50 in µM, then log10 taken.

For orientation, consider the following solved cases.
compound="O=C(CCl)N1N=C(c2ccc(Cl)cc2)CC1c1ccco1 (stereo not drawn)" value_observed=0.78
compound="Cc1ccc2c(c1)c1c3n2CCN(C(=O)CCl)C3CCC1 (stereo not drawn)" value_observed=0.30

Could you now consider this next compound?
[ask] Please give the measured log10 of IC50 for this compound: O=C(NCCc1ccccc1)C(c1cccs1)N(C(=O)CCl)c1cccc(Cl)c1 (stereo not drawn)
[reply] 0.15

====

target: YAP1-TEAD4 (Homo sapiens) (UniProt P46937+Q15561); test: Covalent inhibition of GST-tagged TEAD4 (217 to 434 residues) (unknown origin) expressed in Escherichia coli BL21 (DE3) cells/FAM-labelled YAP1 (60 to 99 residues)(unknown origin) protein-protein interaction assessed as additional protein-compound adduct formation at 100 uM incubated for 24 hrs at 4 degree C followed by mass spectrometry analysis
experimental_endpoint: percent protein-compound adduct formation
Report the figure along with its unit, number first.

Known percent protein-compound adduct formation results, listed for orientation:
compound=CCS(=O)(=O)Oc1ccc(CN(Cc2ccc(F)cc2)C(=O)CCl)cc1 value_observed=20%
compound="COc1ccc(N(C(=O)CCl)C(C(=O)NCCc2ccccc2)c2cccs2)cc1Cl (stereo not given)" value_observed=15%
compound="O=C(NCCc1ccccc1)C(c1cccs1)N(C(=O)CCl)c1cccc(Cl)c1 (stereo not given)" value_observed=17%
compound="COc1ccc(CN(C(=O)CCl)C(C(=O)NC2CCCCC2)c2cccs2)cc1 (stereo not given)" value_observed=30%

[ask] // returns reported percent protein-compound adduct formation for input Cc1ccc2c(c1)c1c3n2CCN(C(=O)CCl)C3CCC1 (stereo not given)
[reply] 30%

====

T1/2 listing for selected compounds.
target: YAP1-TEAD4 (Homo sapiens) (UniProt P46937+Q15561); assay: Covalent inhibition of GST-tagged TEAD4 (217 to 434 residues) (unknown origin) expressed in Escherichia coli BL21 (DE3) cells/FAM-labelled YAP1 (60 to 99 residues)(unknown origin) protein-protein interaction assessed as protein-compound adduct formation by measuring reaction half life at 100 uM incubated for 0.5 to 6 hrs at 4 degree C followed by mass spectrometry analysis; details: time 0.5-6 hrs
# include the unit after the value

Examples from the recorded data:
compound="COc1cccc(C2CC(Cc3cccs3)=NN2C(=O)CCl)c1OC (centres undefined)" value_observed="0.6 h"
compound="O=C(NCCc1ccccc1)C(c1cccs1)N(C(=O)CCl)c1cccc(Cl)c1 (centres undefined)" value_observed="2.2 h"
compound=O=C(Nc1ccccc1)C1CCN(C(=O)CCl)CC1 value_observed="0.1 h"

Now take the following compound into account.
[ask] What does the data say about its T1/2? Entry: CCS(=O)(=O)Oc1ccc(CN(Cc2ccc(F)cc2)C(=O)CCl)cc1
[reply] 3.3 h

====

biological target: UniProtKB Q15562; assay: Inhibition of TEAD2 (217 to 447 residues) (unknown origin) expressed in Escherichia coli BL21 (DE3) cells/FAM-labelled YAP1 (60 to 99 residues)(unknown origin) protein-protein interaction preincubated for 24 hrs at 4 degree C with compound followed by fluorescent labelled YAP1 addition by fluorescence polarization assay
experimental_endpoint: pIC50
Remember, pIC50 is on a log scale: it is -log10 of the molar concentration.

compound=O=C(CCl)NCCSc1ccc(Cl)cc1 experimental_endpoint=pIC50 value_observed=4.06
compound=CCOc1ccc(S(=O)(=O)N2CCN(C(=O)CCl)CC2)cc1 experimental_endpoint=pIC50 value_observed=4.33
compound="Cc1ccc(C2=NN(C(=O)CCl)C(c3ccco3)C2)cc1 (stereo unspecified)" experimental_endpoint=pIC50 value_observed=5.64
compound=NC(=O)c1oc2ccccc2c1NC(=O)CCl experimental_endpoint=pIC50 value_observed=3.60
compound="COc1cccc(C2CC(Cc3cccs3)=NN2C(=O)CCl)c1OC (stereo unspecified)" experimental_endpoint=pIC50 value_observed=5.51

API: the following record is the query input.
[ask] Given the entry CCS(=O)(=O)Oc1ccc(CN(Cc2ccc(F)cc2)C(=O)CCl)cc1 , report its measured pIC50.
[reply] 4.66

====

biological target: TEAD2-YAP1 (Homo sapiens) (UniProt P46937+Q15562); assay: Inhibition of TEAD2 (217 to 447 residues) (unknown origin) expressed in Escherichia coli BL21 (DE3) cells/FAM-labelled YAP1 (60 to 99 residues)(unknown origin) protein-protein interaction assessed as maximum inhibition at 50 uM preincubated for 24 hrs at 4 degree C with compound followed by fluorescent labelled YAP1 addition by fluorescence polarization assay
Sequence (P46937 whole entry, looked up, the tested form may be a part): as the sequence (P46937 whole entry, the tested form may be a part) above
Sequence (Q15562 whole entry, looked up, the tested form may be a part): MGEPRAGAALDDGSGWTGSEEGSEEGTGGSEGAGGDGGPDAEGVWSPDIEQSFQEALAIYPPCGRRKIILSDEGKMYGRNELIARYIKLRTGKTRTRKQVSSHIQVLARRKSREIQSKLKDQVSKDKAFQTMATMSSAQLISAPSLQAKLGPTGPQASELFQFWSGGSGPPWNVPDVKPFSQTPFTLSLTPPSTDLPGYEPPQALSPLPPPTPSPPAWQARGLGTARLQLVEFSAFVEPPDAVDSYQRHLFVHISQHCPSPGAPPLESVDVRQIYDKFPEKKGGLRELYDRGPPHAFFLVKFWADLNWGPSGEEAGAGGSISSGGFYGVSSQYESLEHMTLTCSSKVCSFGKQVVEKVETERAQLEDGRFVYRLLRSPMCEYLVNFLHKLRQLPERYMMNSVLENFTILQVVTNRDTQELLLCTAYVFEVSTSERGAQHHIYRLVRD
// reported Imax per item
# output: bare number, implied unit %

molecule=CCS(=O)(=O)Oc1ccc(CN(Cc2ccc(F)cc2)C(=O)CCl)cc1 experimental_endpoint=Imax unit_string=% value_observed=22
molecule="COc1cccc(C2CC(Cc3cccs3)=NN2C(=O)CCl)c1OC (centres undefined)" experimental_endpoint=Imax unit_string=% value_observed=35
molecule="Cc1ccc(C2=NN(C(=O)CCl)C(c3ccco3)C2)cc1 (centres undefined)" experimental_endpoint=Imax unit_string=% value_observed=29

Now for the molecule whose Imax we want.
[ask] Which measured Imax value corresponds to CCOc1ccc(S(=O)(=O)N2CCN(C(=O)CCl)CC2)cc1 ?
[reply] 14
